assay: cytotoxic assay, HeLa cells; format: cell-based; conditions: human, read-out: IC50, cytotoxic effects against HeLa cells
experimental readout: IC50 (µM)
Express your answer in µM, writing the number without its unit.

Data request: IC50 for Cc1cc(O)c(O)c(Oc2cc(C)c3c4c(c(=O)oc3c2O)Nc2c(O)cc(C)cc2S4)c1 [Phaeofungin C] ?
Data returned: 10
